Molecular target: T1, soluble human CTLA-4 expressed with a C-terminal myc-myc-polyhistidine tag (human)
T1 construct: soluble protein; also called hCTLA-4.mmh; hCTLA4.mmh
T1 sequence (chain, as listed by the source limits assumed): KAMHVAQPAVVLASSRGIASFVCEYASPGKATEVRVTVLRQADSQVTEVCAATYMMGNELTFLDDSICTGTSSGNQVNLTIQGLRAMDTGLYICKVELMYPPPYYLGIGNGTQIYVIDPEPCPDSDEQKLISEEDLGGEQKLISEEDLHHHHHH
Test: SPR, mAb capture, 25 C
outcome-measure: kon
Provide the measurement as a number trailed by its unit.

{"binder": "H1H19291P (antibody, human IgG1, V domains shown) VH: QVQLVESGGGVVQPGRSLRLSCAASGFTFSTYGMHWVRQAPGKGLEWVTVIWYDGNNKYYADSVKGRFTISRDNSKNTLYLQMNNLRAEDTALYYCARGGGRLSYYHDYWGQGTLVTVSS VL: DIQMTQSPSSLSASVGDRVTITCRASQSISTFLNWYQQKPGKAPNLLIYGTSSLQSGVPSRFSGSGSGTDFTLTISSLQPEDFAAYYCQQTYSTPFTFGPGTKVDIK", "outcome-measure": "kon", "reported-measurement": "88800 M⁻¹ s⁻¹"}
{"binder": "H1H19284P (antibody, human IgG1, V domains shown) VH: EVQLVESGGGLVQPGGSLRLSCAASGFTLSNYVMTWVRQAPGKGLEWVSAISGRGGNSYYADSVKGRFSISRDHSKNTLYLQVNSLRAEDTAVYYCAKAERGYSYGFNWFDPWGQGTLVTVSS VL: DIQMTQSPSSVSASAGDRVTITCRASQGISSWLAWYQQKPGKAPKLLIYAASSLQSGVPSRFSGSGSGTDFTLTISSLQPEDFASYYCQQGNNFPLTFGGGTKVEIK", "outcome-measure": "kon", "reported-measurement": "148000 M⁻¹ s⁻¹"}
{"binder": "H1H19274P (antibody, human IgG1, V domains shown) VH: QVQLQESGPGLVKPSETLSLTCTVSGGSINSYYWTWIRQPPGKGLEWIGYVYYSGSTTYNPSLKSRVTISVDTSKNQFFLNLNSVTAAETAVYYCARGTLGYYGMDVWGQGTTVTVSS VL: EIVLTQSPGTLSLSPGERATLSCRASQSFSNNYLAWYQQKPGQAPRLLIYGTSIRATGIPDRFSGSGSGTDFTLAISRLEPEDFAVYYCQQYGRSPLTFGGGTKVEIK", "outcome-measure": "kon", "reported-measurement": "530000 M⁻¹ s⁻¹"}
{"binder": "H1H20370N (antibody, human IgG1, V domains shown, here with human IgG1 Fc (H1H)) VH: QVQLHESGPGLVKPSQTLSLTCSVSGGSISNGGYYWSWIRQHPGQGLEWIGYIYYIGNTYYNPSLESRVTMSIDTSKNQFSLKLSSVTAADTAIYYCARQEFVPGAEYFLHWGQGILVTVSS VL: DIRMTQSPSSLSASVGDRVTITCRASQTVNTFLNWYQQKPGKAPKLLIFGASSLQSGVPSRFSGSGSGTDFTLTISGLQPEDFAIYYCQQSYSVPPITFGQGTRLEIE", "outcome-measure": "kon", "reported-measurement": "172000 M⁻¹ s⁻¹"}

Could you now consider this next binder?
Which measured kon value corresponds to H1H19280P (antibody, human IgG1, V domains shown) VH: QLQLQESGPGLVKPSETLSLTCIVSGGSTSSNTYYWGWIRQPPGKGLEWIGTIHYSGNPYYDPSLKSRVTISVDTSKNHFSLKLNSVTAADTAVYYCTRQYINFFDFWGQGTLVTVSS VL: EIVLTQSPATLSLSPGERVTLSCRASQSISRYLAWYQQKPGQAPRVLIYDASNRATDIPARFSGSGSGTDFTLTISSLEPEDFAVYYCQQRSNWPITFGQGTRLEIK ?
337000 M⁻¹ s⁻¹
